Protocol summary: Inhibition of lysosomal alpha-glucosidase
Value kind: Ki (nM)
Numbers only, in nM.

Please list Ki recorded for the compound O[C@H]1[C@H](O)[C@@H](O)CN2CC[C@H](O)[C@H]12 [CASTANOSPERMINE]
100

----------
Test system: Oryza sativa
Protocol summary: Inhibition of rice alpha-D-glucosidase at 1 mg/ml after 10 to 20 mins
Calls of active or inactive are those of the source. The rule behind the calls is not given here.
Value kind: inhibition

Examples from the recorded data:
Molecule	Result
CO[C@H]1O[C@H](CO)CNC[C@H]1O	inactive
CO[C@H]1O[C@H](CO)CN(Cc2ccccc2)C[C@H]1O	inactive
CCCCN1C[C@@H](CO)O[C@H](OC)[C@H](O)C1	inactive
CCCCCCCCN1C[C@@H](CO)O[C@H](OC)C1	inactive

Required: inhibition, one value per molecule below.
1. COC(=O)C(Cc1ccccc1)N1C[C@@H](CO)O[C@H](OC)C1 (some centres not stated)
2. COC(=O)C(C)N1C[C@@H](CO)O[C@H](OC)C1 (some centres not stated)

1: inactive; 2: inactive

----------
Tested on: Prunus
Protocol summary: Inhibition of almond beta-D-glucosidase at 1 mg/ml after 10 to 20 mins
Active and inactive are the calls of the source. The rule behind the calls is not given here.
Value kind: inhibition

Compound	Result
COC(=O)C(Cc1ccc(O)cc1)N1C[C@@H](CO)O[C@H](OC)[C@H](O)C1 (some centres undefined)	inactive
COC(=O)C(C)N1C[C@@H](CO)O[C@H](OC)[C@H](O)C1 (some centres undefined)	inactive
COC(=O)C(Cc1ccc(O)cc1)N1C[C@@H](CO)O[C@H](OC)C1 (some centres undefined)	inactive
CO[C@@H]1CNC[C@@H](CO)O1	4%

----------
System: Penicillium decumbens
Protocol summary: Inhibition of Penicillium decumbens naringinase at 1 mg/ml after 10 to 20 mins
Activity calls are given as the source filed them. No cut-off for these calls is given here.
Value kind: inhibition

Examples from the recorded data:
Compound	Result
CO[C@@H]1CNC[C@@H](CO)O1	9%
COC(=O)C(Cc1ccccc1)N1C[C@@H](CO)O[C@H](OC)[C@H](O)C1 (stereo not given in full)	inactive
COC(=O)C(C)N1C[C@@H](CO)O[C@H](OC)[C@H](O)C1 (stereo not given in full)	inactive
COC(=O)C(Cc1ccc(O)cc1)N1C[C@@H](CO)O[C@H](OC)C1 (stereo not given in full)	inactive
CCCCCCCCN1C[C@@H](CO)O[C@H](OC)[C@H](O)C1	inactive

Required: inhibition, one value per compound below.
1. CO[C@@H]1CN(C[C@H]2O[C@H](OC)[C@H](O)[C@@H](O)[C@@H]2O)C[C@@H](CO)O1
2. CO[C@H]1O[C@H](CN2C[C@@H](CO)O[C@H](OC)[C@H](O)C2)[C@@H](OCc2ccccc2)[C@H](OCc2ccccc2)[C@H]1OCc1ccccc1

1: 11%; 2: inactive

Required: inhibition, one value per compound below.
1. CO[C@H]1O[C@H](CO)CN(O)C[C@H]1O
2. CO[C@@H]1CN(O)C[C@@H](CO)O1
3. CCCCN1C[C@@H](CO)O[C@H](OC)[C@H](O)C1

inactive
inactive
inactive

----------
Assay target: Beta-galactosidase/Glucosylceramidase (Bos taurus, UniProt Q58D55+Q2KHZ8)
Protocol summary: Inhibition of bovine liver beta-glucosidase/beta-galatosidase
The label criterion met is reserved for Ki strictly under 30 µM; criterion not met covers values equal to or above it.

Some solved cases for reference:
O[C@@H]1[C@H](O)[C@H](O)[C@@]2(O)CO[C@H]1N2C(=S)Nc1ccccc1 criterion not met
O[C@@H]1[C@@H](O)[C@H](O)[C@@]2(O)CO[C@H]1N2 criterion not met
O[C@@H]1[C@@H](O)[C@H](O)[C@@]2(O)CO[C@H]1N2C(=S)Nc1ccccc1 criterion met

Hello, is Ki of the following molecule strictly smaller than 30 µM? `O=C(Nc1ccccc1)N1[C@@H]2OC[C@]1(O)[C@@H](O)[C@@H](O)[C@H]2O`
criterion not met

----------
Tested on: Cellulomonas fimi
Protocol summary: Inhibition of Cellulomonas fimi beta-D-mannosidase at 1 mg/ml after 10 to 20 mins
The source made the active and inactive calls. The rule behind the calls is not given here.
Value kind: inhibition

Examples from the recorded data:
Compound	Assay target	inhibition
COC(=O)C(Cc1ccc(O)cc1)N1C[C@@H](CO)O[C@H](OC)C1 (stereo partly specified)	Cellulomonas fimi	inactive
CO[C@H]1O[C@H](CO)CN(O)C[C@H]1O	Cellulomonas fimi	inactive
CCCN1C[C@@H](CO)O[C@H](OC)C1	Cellulomonas fimi	inactive
CO[C@@H]1CN(C[C@H]2O[C@H](OC)[C@H](O)[C@@H](O)[C@@H]2O)C[C@@H](CO)O1	Cellulomonas fimi	33%

Required: inhibition, one value per compound below.
1. CO[C@@H]1CNC[C@@H](CO)O1
2. COC(=O)C(Cc1ccccc1)N1C[C@@H](CO)O[C@H](OC)[C@H](O)C1 (stereo partly specified)

["5%", "inactive"]

----------
Assay target: Beta-galactosidase (Bos taurus) (UniProt Q58D55)
Sequence (Q58D55 whole entry): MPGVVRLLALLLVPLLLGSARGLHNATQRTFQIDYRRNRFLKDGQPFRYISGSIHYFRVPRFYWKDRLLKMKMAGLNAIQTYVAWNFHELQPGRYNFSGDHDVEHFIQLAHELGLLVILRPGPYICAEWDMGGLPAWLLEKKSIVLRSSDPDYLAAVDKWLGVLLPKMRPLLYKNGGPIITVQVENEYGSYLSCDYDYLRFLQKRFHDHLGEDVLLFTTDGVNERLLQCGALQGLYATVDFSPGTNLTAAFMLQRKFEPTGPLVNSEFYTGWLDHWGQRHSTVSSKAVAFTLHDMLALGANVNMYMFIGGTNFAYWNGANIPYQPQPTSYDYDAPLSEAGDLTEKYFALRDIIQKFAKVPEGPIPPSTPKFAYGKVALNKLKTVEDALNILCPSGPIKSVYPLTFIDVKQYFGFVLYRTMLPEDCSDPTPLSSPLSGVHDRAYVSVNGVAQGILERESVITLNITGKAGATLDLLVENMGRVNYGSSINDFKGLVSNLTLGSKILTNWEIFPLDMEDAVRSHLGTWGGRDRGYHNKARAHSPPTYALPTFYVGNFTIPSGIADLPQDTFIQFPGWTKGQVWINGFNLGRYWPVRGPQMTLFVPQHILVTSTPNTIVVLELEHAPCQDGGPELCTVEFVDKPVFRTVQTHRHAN
Protocol summary: Inhibition of bovine kidney beta-D-galactosidase at 1 mg/ml after 10 to 20 mins
Calls of active or inactive are those of the source. The rule behind the calls is not given here.
Value kind: inhibition

Examples from the recorded data:
Molecule	Result
CCCCCCCCN1C[C@@H](CO)O[C@H](OC)C1	51%
COC(=O)C(Cc1ccccc1)N1C[C@@H](CO)O[C@H](OC)[C@H](O)C1 (some centres not stated)	inactive
COC(=O)C(Cc1ccc(O)cc1)N1C[C@@H](CO)O[C@H](OC)C1 (some centres not stated)	12%
CO[C@H]1O[C@H](CO)CN(O)C[C@H]1O	inactive
CO[C@H]1O[C@H](CO)CNC[C@H]1O	16%

Required: inhibition, one value per molecule below.
1. COC(=O)CN1C[C@@H](CO)O[C@H](OC)C1
2. CO[C@H]1O[C@H](CO)CN(Cc2ccccc2)C[C@H]1O
3. CO[C@@H]1CN(C)C[C@@H](CO)O1
4. COC(=O)C(C)N1C[C@@H](CO)O[C@H](OC)C1 (some centres not stated)
5. COC(=O)C(Cc1ccc(O)cc1)N1C[C@@H](CO)O[C@H](OC)[C@H](O)C1 (some centres not stated)
6. COC(=O)C(C)N1C[C@@H](CO)O[C@H](OC)[C@H](O)C1 (some centres not stated)

["36%", "inactive", "48%", "14%", "inactive", "inactive"]

Required: inhibition, one value per molecule below.
1. CO[C@@H]1CNC[C@@H](CO)O1
2. CCCN1C[C@@H](CO)O[C@H](OC)C1
3. COC(=O)C(Cc1ccccc1)N1C[C@@H](CO)O[C@H](OC)C1 (some centres not stated)
4. CCCCCCCCN1C[C@@H](CO)O[C@H](OC)[C@H](O)C1
5. COC(=O)CN1C[C@@H](CO)O[C@H](OC)[C@H](O)C1
6. CO[C@@H]1CN(C[C@H]2O[C@H](OC)[C@H](O)[C@@H](O)[C@@H]2O)C[C@@H](CO)O1
7. CO[C@H]1O[C@H](CN2C[C@@H](CO)O[C@H](OC)[C@H](O)C2)[C@@H](OCc2ccccc2)[C@H](OCc2ccccc2)[C@H]1OCc1ccccc1

["27%", "54%", "5%", "inactive", "inactive", "50%", "inactive"]

Required: inhibition, one value per molecule below.
1. CCCN1C[C@@H](CO)O[C@H](OC)[C@H](O)C1
2. CCCCN1C[C@@H](CO)O[C@H](OC)C1
3. CCCCN1C[C@@H](CO)O[C@H](OC)[C@H](O)C1
4. CO[C@@H]1CN(O)C[C@@H](CO)O1

["32%", "45%", "23%", "82%"]

----------
Test system: Geobacillus stearothermophilus
Protocol summary: Inhibition of Bacillus stearothermophilus alpha-D-glucosidase at 1 mg/ml after 10 to 20 mins
Active and inactive are the calls of the source. No cut-off for these calls is given here.
Value kind: inhibition

Examples from the recorded data:
Molecule	Result
COC(=O)C(C)N1C[C@@H](CO)O[C@H](OC)[C@H](O)C1 (stereo partly specified)	inactive
CCCCN1C[C@@H](CO)O[C@H](OC)[C@H](O)C1	inactive
COC(=O)C(Cc1ccc(O)cc1)N1C[C@@H](CO)O[C@H](OC)C1 (stereo partly specified)	inactive
CO[C@@H]1CNC[C@@H](CO)O1	inactive
CCCN1C[C@@H](CO)O[C@H](OC)C1	9%

Attention now turns to another entry.
Supply inhibition measured with Geobacillus stearothermophilus for `CCCCCCCCN1C[C@@H](CO)O[C@H](OC)[C@H](O)C1` .
inactive

----------
Species: Bos taurus
Protocol summary: Inhibition of bovine kidney N-acetyl-beta-D-glucosaminidase at 1 mg/ml after 10 to 20 mins
Active and inactive are the calls of the source. No cut-off for these calls is given here.
Value kind: inhibition

Examples from the recorded data:
Compound	Result
CCCCN1C[C@@H](CO)O[C@H](OC)C1	8%
COC(=O)C(Cc1ccccc1)N1C[C@@H](CO)O[C@H](OC)[C@H](O)C1 (stereo partly specified)	inactive
CO[C@@H]1CN(O)C[C@@H](CO)O1	72%
COC(=O)C(Cc1ccccc1)N1C[C@@H](CO)O[C@H](OC)C1 (stereo partly specified)	inactive
CO[C@@H]1CNC[C@@H](CO)O1	10%

Required: inhibition, one value per compound below.
1. CO[C@H]1O[C@H](CO)CNC[C@H]1O
2. CO[C@@H]1CN(C)C[C@@H](CO)O1
3. COC(=O)C(Cc1ccc(O)cc1)N1C[C@@H](CO)O[C@H](OC)[C@H](O)C1 (stereo partly specified)
4. COC(=O)C(Cc1ccc(O)cc1)N1C[C@@H](CO)O[C@H](OC)C1 (stereo partly specified)
5. CCCN1C[C@@H](CO)O[C@H](OC)[C@H](O)C1
6. CO[C@H]1O[C@H](CN2C[C@@H](CO)O[C@H](OC)[C@H](O)C2)[C@@H](OCc2ccccc2)[C@H](OCc2ccccc2)[C@H]1OCc1ccccc1

1. 9%
2. inactive
3. inactive
4. inactive
5. 25%
6. inactive
